target of assay: Cav2.1 calcium channel α1 subunit (P/Q-type hCav2.1) (Homo sapiens, UniProt O00555)
Sequence (O00555 whole entry): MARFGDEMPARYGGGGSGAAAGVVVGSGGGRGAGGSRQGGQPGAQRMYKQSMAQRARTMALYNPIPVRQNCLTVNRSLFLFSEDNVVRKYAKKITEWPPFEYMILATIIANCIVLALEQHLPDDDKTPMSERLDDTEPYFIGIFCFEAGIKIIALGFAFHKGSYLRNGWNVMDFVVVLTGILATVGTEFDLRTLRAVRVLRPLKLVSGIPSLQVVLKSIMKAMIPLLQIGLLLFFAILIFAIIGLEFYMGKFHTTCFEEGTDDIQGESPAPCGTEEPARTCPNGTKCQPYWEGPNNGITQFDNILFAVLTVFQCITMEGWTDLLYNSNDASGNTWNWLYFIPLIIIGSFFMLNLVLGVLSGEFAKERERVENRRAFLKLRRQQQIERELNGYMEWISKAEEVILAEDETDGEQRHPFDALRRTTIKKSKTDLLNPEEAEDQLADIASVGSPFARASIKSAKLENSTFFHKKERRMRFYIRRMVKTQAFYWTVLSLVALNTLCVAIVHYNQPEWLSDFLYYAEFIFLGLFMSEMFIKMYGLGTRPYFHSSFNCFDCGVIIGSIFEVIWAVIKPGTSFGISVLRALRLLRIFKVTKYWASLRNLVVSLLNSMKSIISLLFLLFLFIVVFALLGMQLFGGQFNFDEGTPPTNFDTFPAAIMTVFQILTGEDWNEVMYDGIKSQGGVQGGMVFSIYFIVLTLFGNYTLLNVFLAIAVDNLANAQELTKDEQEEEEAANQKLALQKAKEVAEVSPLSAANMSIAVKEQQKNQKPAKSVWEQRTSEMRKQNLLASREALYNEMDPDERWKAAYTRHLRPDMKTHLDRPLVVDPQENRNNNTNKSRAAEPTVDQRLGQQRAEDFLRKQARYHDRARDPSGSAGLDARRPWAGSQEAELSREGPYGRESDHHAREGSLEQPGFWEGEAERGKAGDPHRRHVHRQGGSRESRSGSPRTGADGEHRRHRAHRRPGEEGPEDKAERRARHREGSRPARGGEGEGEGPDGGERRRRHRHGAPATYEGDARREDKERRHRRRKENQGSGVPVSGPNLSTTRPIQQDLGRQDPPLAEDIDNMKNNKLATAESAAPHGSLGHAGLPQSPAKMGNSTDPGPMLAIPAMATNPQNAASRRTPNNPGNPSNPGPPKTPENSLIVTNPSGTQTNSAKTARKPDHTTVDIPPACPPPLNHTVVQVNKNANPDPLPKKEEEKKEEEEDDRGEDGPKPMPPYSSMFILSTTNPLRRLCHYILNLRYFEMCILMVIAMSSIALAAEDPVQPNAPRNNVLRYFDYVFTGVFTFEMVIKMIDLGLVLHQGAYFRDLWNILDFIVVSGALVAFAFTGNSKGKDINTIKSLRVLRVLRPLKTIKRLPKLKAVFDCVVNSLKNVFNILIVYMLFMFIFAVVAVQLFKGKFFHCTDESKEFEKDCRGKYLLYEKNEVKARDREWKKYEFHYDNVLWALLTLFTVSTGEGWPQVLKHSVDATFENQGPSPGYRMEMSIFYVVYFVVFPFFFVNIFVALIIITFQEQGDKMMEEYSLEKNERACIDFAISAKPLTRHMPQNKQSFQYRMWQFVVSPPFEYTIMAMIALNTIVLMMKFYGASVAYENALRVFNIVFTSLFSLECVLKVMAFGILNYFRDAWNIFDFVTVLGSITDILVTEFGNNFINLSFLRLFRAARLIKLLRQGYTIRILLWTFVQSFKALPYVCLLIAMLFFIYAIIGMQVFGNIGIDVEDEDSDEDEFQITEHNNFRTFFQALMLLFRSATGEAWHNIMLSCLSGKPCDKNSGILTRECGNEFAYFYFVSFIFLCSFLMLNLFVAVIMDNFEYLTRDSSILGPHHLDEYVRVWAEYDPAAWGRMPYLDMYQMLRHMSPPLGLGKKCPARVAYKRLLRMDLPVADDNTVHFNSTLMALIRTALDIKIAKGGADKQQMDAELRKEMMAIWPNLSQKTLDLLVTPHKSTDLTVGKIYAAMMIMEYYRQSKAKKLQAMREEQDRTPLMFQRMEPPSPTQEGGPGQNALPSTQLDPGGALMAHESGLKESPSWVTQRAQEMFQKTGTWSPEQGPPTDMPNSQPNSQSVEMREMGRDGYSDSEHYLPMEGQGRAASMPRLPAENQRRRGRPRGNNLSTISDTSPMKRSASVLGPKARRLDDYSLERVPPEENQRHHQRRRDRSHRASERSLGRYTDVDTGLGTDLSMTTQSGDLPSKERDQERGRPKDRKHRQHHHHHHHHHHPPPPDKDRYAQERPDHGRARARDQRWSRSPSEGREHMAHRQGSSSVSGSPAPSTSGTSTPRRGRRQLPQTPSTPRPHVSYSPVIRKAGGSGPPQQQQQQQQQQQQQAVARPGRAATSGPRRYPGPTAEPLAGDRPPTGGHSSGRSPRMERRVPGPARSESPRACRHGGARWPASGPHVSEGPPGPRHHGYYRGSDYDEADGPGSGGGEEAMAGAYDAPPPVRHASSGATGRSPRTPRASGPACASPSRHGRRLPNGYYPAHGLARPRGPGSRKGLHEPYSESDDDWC
assay name: whole-cell patch clamp of ICa in transfected HEK293-F cells
pIC50: −log10 of the molar value.
observation type: pIC50

Query block: Dear colleague, I am looking for the recorded pIC50 of the following compound: N.N.N.N.N.N.N.N.[Cl][Ru+3].[NH]=[Ru][Cl] [Ru265]
Result block: ~5.60
